- Tested on: HEK-293T
- Measurement protocol: Incucyte cell viability with HEK293T; also: unitless GR value; below 1 slowed growth and below 0 cell loss
- Format: toxicity, cell-based
- Test settings: human, 24 h, 10 µM, compound concentration 10 uM, replicate number 1
hey, just use Met if measured Growth Rate is less than 0.7, otherwise Not met

compound=CC1(C)CCC[C@]2(C)[C@@H](C=O)C(C=O)=CC[C@@H]12 class_assignment="Not met"
compound=Cc1cc(-c2nncc3c(C(C)(C)C)c(OCc4ncnn4C)nn23)no1 class_assignment=Met
compound=CN[C@@H](C)C(=O)N[C@H](C(=O)N1CCC[C@H]1C(=O)Nc1snnc1-c1ccccc1)C1CCCCC1 class_assignment=Met
compound="CC(F)(F)CN1C(=O)c2[nH]nc(-c3cccc4[nH]c(=O)oc34)c2C1c1ccc(Oc2cc(C(F)(F)F)cc(C(F)(F)F)c2)cc1 (stereo unspecified)" class_assignment="Not met"
compound=CC(C)N1CCN(Cc2cnc(-c3cc(-c4cccc5[nH]ccc45)cc4[nH]ncc34)o2)CC1 class_assignment=Met
compound="CCOC(=O)C1Cc2ccccc2CN1C(=O)c1ccc(SC)s1 (stereo unspecified)" class_assignment=Met

Regarding `O=C(NC1CCNCC1)c1n[nH]cc1NC(=O)c1c(Cl)cccc1Cl` , kindly confirm whether its Growth Rate is beneath 0.7.
Met

###

- System: U2OS
- Measurement protocol: Incucyte cell viability with U2OS; also: unitless GR value; below 1 slowed growth and below 0 cell loss
- Type: toxicity, cell-based
- Test settings: human, 18 h, 10 µM, compound concentration 10 uM, replicate number 1
Measure name: Growth Rate
Reply: number alone, nothing else.

molecule=CCOC(=O)N1CCC(c2cc(O)n3nc(C)c(-c4ccc(F)cc4)c3n2)CC1 target_under_test=U2OS observed_measurement=0.98
molecule=CCN(CC)C/C=C/C(=O)Nc1cc2c(Nc3ccc(F)c(Cl)c3)ncnc2cc1OCC1CC1 target_under_test=U2OS observed_measurement=-0.19
molecule="Cl.Cl.N=C(N)NCCC[C@H](NC(=O)CC1(CC(=O)N2CCN(C3c4ccccc4NC(=O)c4ccccc43)CC2)CCCC1)C(=O)NCCn1c(=O)n(-c2ccccc2)n(-c2ccccc2)c1=O (some centres not stated)" target_under_test=U2OS observed_measurement=0.83
molecule=NC(=O)c1ccc2[nH]c(-c3ccc(Oc4ccc(Cl)cc4)cc3)nc2c1 target_under_test=U2OS observed_measurement=0.72
molecule=CN1C(=O)c2ccccc2N(C)c2nc(Nc3cnn(C4CCNCC4)c3)ncc21 target_under_test=U2OS observed_measurement=0.07
molecule=C[C@@H]1C[C@H](N)C[C@H](c2ccncc2NC(=O)c2ccc(F)c(-c3c(F)cccc3F)n2)C1 target_under_test=U2OS observed_measurement=0.82
molecule=C[C@@]1(Cc2ccc(C#N)cc2)C(=O)N(c2cc(Cl)cc(Cl)c2)c2ncc(C(=O)NC3(c4nc(C5CCC5)no4)CC3)n21 target_under_test=U2OS observed_measurement=0.83
molecule=CCN(C)S(=O)(=O)Nc1cccc(-c2ccc3c(NC(=O)C4CC4)n[nH]c3c2)c1 target_under_test=U2OS observed_measurement=-0.12

Memo: `CN(C)C/C=C/C(=O)Nc1cc2c(Nc3ccc(F)c(Cl)c3)ncnc2cc1OC[C@@H]1CCCO1` , reported Growth Rate: -0.23

For record `Cl.c1ccc2c(c1)CCC[C@H]2Nc1nc2ccccc2[nH]1` the listed Growth Rate is 0.9

The recorded Growth Rate for entry `C[C@]12CC[C@@H]3c4ccc(O)cc4CC[C@H]3[C@@H]1C[C@H]1OC(=O)C[C@]12O` equals 0.38

The measured Growth Rate associated with `CC1(C)C[C@@H]1C(=O)N/C(=C\CCCCSC[C@H](N)C(=O)O)C(=O)O` reads 0.9

Input `CC#CC(=O)N1CCN(c2nc(-c3ccc(Oc4ccccc4)cc3)c(C(N)=O)s2)CC1` . Output Growth Rate: 0.66

What the record says about `Fc1cccc(-n2cnc3c(NCc4nc5ccc(F)c(F)c5[nH]4)nc(N4CCOCC4)nc32)c1` : Growth Rate is -0.23

Record `CC(C)[C@@H]1CC[C@@H](C)C[C@@H]1P(=O)(c1ccccc1)c1ccccc1` , field Growth Rate: 0.78

Lab book: Growth Rate of `COc1cnccc1Nc1nc(-c2nn(Cc3c(F)cc(OCCO)cc3F)c3ccccc23)ncc1OC` noted as -0.22
